- Tested on: human retinal capillary endothelial cells (HRCECs)
- method.summary: MTT proliferation inhibition on HRCECs
- Assay type: cell-based
- assay.context: 48 h, dose 0.05 μM
Marks after values point to notes of the source that are not given here. Peptide text beside a SMILES is read from it. * marks the point of attachment. X64 = O=C1C=CC(=O)N1c1cccc(CCCCCCCCCC(=O)*)c1; X54 = O=C1C=CC(=O)N1c1cccc(CCCCCCC(=O)*)c1; X71 = O=C1C=CC(=O)N1c1cccc(CCCCCC(=O)*)c1
metric.name: Inhibition rate (%)

1) C[C@H](NC(=O)CNC(=O)[C@H](CCCNC(=N)N)NC(=O)CCCCCCCCCc1cccc(N2C(=O)C=CC2=O)c1)C(=O)N[C@@H](CC(=O)O)C(=O)N[C@@H](CCCNC(=N)N)C(=O)N[C@@H](C)C(=O)NCC(=O)NCC(=O)NCC(=O)NCC(=O)N[C@@H](CCCNC(=N)N)C(=O)NCC(=O)N[C@@H](CC(=O)O)C(=O)O [X33] (X64-RGADRAGGGGRGD-OH) ... 42.66%*
2) C[C@H](NC(=O)CNC(=O)[C@H](CCCNC(=N)N)NC(=O)CCCCCc1cccc(N2C(=O)C=CC2=O)c1)C(=O)N[C@@H](CC(=O)O)C(=O)N[C@@H](CCCNC(=N)N)C(=O)N[C@@H](C)C(=O)NCC(=O)NCC(=O)NCC(=O)NCC(=O)N[C@@H](CCCNC(=N)N)C(=O)NCC(=O)N[C@@H](CC(=O)O)C(=O)O [X29] (X71-RGADRAGGGGRGD-OH) ... 52.67%*
3) C[C@H](NC(=O)CNC(=O)[C@H](CCCNC(=N)N)NC(=O)CCCCCCc1cccc(N2C(=O)C=CC2=O)c1)C(=O)N[C@@H](CC(=O)O)C(=O)N[C@@H](CCCNC(=N)N)C(=O)N[C@@H](C)C(=O)NCC(=O)NCC(=O)NCC(=O)NCC(=O)N[C@@H](CCCNC(=N)N)C(=O)NCC(=O)N[C@@H](CC(=O)O)C(=O)O [X30] (X54-RGADRAGGGGRGD-OH) ... 42.46%*

###

- method.summary: Half-lives and pharmacokinetic parameters of polypeptides vs HM-1
- assay.context: in vivo
Peptide text beside a SMILES is read from it. * marks the point of attachment. X11 = O=C1C=CC(=O)N1CCOCCOCCOCCOCCOCCCCCC(=O)*; X60 = O=C1C=CC(=O)N1c1ccccc1CCCCCCCCCC(=O)*; X37 = O=C1C=CC(=O)N1c1ccc(CCCCCC(=O)*)cc1
metric.name: AUC(0-inf)

1) C[C@H](NC(=O)CNC(=O)[C@H](CCCNC(=N)N)NC(=O)CCCCCOCCOCCOCCOCCOCCN1C(=O)C=CC1=O)C(=O)N[C@@H](CC(=O)O)C(=O)N[C@@H](CCCNC(=N)N)C(=O)N[C@@H](C)C(=O)NCC(=O)NCC(=O)NCC(=O)NCC(=O)N[C@@H](CCCNC(=N)N)C(=O)NCC(=O)N[C@@H](CC(=O)O)C(=O)O [X81] (X11-RGADRAGGGGRGD-OH) ... 30.7 µg·h/mL
2) C[C@H](NC(=O)CNC(=O)[C@H](CCCNC(=N)N)NC(=O)CCCCCc1ccc(N2C(=O)C=CC2=O)cc1)C(=O)N[C@@H](CC(=O)O)C(=O)N[C@@H](CCCNC(=N)N)C(=O)N[C@@H](C)C(=O)NCC(=O)NCC(=O)NCC(=O)NCC(=O)N[C@@H](CCCNC(=N)N)C(=O)NCC(=O)N[C@@H](CC(=O)O)C(=O)O [X41] (X37-RGADRAGGGGRGD-OH) ... 26.5 µg·h/mL
3) C[C@H](NC(=O)CNC(=O)[C@H](CCCNC(=N)N)NC(=O)CCCCCCCCCc1ccccc1N1C(=O)C=CC1=O)C(=O)N[C@@H](CC(=O)O)C(=O)N[C@@H](CCCNC(=N)N)C(=O)N[C@@H](C)C(=O)NCC(=O)NCC(=O)NCC(=O)NCC(=O)N[C@@H](CCCNC(=N)N)C(=O)NCC(=O)N[C@@H](CC(=O)O)C(=O)O [X21] (X60-RGADRAGGGGRGD-OH) ... 34 µg·h/mL
